Measured IC50 accompanies every entry in the list below.
Assay: Inhibition of human LeuRS
Your answer should be a number followed by the unit of measure.

>>> print(df.to_string())
                               given_smiles  observed_property  reported_measurement
0  CC[C@H](C)[C@H](N)C(=O)NS(=O)(=O)OC[C@H]1O[C@@H](c2nc(-c3ccccc3)ns2)[C@H](O)[C@@H]1O               IC50             200000 nM
1  CC[C@H](C)[C@H](N)C(=O)NS(=O)(=O)OCc1oc(-c2nc(-c3ccccc3)cs2)c(O)c1O               IC50                600 nM
2  CC(C)C[C@H](N)C(=O)NS(=O)(=O)OC[C@H]1O[C@@H](c2nc(-c3ccc(Oc4ccccc4)cc3)ns2)[C@H](O)[C@@H]1O               IC50                600 nM

Ask: Form field: reported IC50 of CC(C)C[C@H](N)C(=O)NS(=O)(=O)OC[C@H]1O[C@@H](c2nc(CCc3cccc(Oc4ccccc4)c3)ns2)[C@H](O)[C@@H]1O
Reply: 1150 nM

Ask: Form field: reported IC50 of CC(C)C[C@H](N)C(=O)NS(=O)(=O)OC[C@H]1O[C@@H](c2nc(CCc3ccccc3)ns2)[C@H](O)[C@@H]1O
Reply: 730 nM

* * *

Measured IC50 accompanies every entry in the list below.
Test: Inhibition of Escherichia coli LeuRS
// units = nM; emit number, no label

Here are 3 compounds together with their reported answers.
In [3]: df
Out[3]:
                               given_smiles  unit_abbrev  reported_measurement
0  CC[C@H](C)[C@H](N)C(=O)NS(=O)(=O)OCc1oc(-c2nc(-c3ccccc3)cs2)c(O)c1O           nM                   1.6
1  CC(C)C[C@H](N)C(=O)NS(=O)(=O)OC[C@H]1O[C@@H](c2nc(-c3ccc(Oc4ccccc4)cc3)ns2)[C@H](O)[C@@H]1O           nM                   1.6
2  CC[C@H](C)[C@H](N)C(=O)NS(=O)(=O)OC[C@H]1O[C@@H](c2nc(-c3ccccc3)ns2)[C@H](O)[C@@H]1O           nM                  1000

// below: IC50 requested for another compound
Ask: Form field: reported IC50 of CC(C)C[C@H](N)C(=O)NS(=O)(=O)OC[C@H]1O[C@@H](c2nc(CCc3cccc(Oc4ccccc4)c3)ns2)[C@H](O)[C@@H]1O
Reply: 6
